For each entry below, report its Cardiomyocyte (CM) (ErbB4) Avg EC50 value.
Biological target: ErbB4 on neonatal rat cardiomyocytes (rat) (UniProt Q62956)
Sequence (Q62956 26-1308): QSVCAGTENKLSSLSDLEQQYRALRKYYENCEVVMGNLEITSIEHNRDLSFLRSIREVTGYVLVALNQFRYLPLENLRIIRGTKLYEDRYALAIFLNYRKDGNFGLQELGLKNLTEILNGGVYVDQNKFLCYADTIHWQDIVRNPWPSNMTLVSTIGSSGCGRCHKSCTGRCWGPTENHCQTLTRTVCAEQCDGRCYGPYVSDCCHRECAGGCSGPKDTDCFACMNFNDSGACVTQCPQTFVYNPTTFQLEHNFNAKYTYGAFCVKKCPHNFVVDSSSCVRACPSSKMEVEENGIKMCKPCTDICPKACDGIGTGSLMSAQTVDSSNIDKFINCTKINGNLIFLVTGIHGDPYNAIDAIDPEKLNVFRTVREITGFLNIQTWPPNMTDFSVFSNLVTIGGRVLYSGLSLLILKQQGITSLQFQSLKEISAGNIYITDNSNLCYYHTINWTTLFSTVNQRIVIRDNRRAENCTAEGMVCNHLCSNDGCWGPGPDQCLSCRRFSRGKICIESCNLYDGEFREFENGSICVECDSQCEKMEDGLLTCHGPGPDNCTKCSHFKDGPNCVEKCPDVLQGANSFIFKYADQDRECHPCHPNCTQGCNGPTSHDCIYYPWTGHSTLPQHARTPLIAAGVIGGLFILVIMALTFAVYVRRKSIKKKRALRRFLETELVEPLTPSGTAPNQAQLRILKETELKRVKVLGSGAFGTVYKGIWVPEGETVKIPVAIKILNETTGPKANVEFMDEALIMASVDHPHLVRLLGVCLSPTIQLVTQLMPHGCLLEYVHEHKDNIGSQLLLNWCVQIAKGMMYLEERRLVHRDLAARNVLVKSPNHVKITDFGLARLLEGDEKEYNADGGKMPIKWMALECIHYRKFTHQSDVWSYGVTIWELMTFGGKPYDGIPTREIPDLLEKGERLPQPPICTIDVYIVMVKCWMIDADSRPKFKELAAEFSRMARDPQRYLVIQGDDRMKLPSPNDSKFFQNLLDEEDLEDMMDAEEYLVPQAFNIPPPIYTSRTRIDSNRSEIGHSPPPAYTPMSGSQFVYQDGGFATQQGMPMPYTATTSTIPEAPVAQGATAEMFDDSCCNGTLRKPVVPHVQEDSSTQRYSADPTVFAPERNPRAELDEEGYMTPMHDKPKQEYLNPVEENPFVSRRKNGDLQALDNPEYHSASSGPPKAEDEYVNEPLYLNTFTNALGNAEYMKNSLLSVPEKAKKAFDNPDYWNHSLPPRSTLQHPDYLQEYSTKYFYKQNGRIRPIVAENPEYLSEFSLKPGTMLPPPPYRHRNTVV
Experiment: cell-based or functional assay
Write the value in nM as a bare number.

[ask] Recorded Cardiomyocyte (CM) (ErbB4) Avg EC50 for huNRG1(S177-Q237)(3D6)::GG::huFcSEFL2 (Pb) (Fc fusion) SHLVKCGESDKSFCVNGGECFVIEGSSIPSRFLCKCPNEFTGDRCQDFFMASFYKAEELYQGGDKTHTCPPCPAPELLGGPSVFLFPPKPKDTLMISRTPEVTCVVVDVSHEDPEVKFNWYVDGVEVHNAKTKPCEEQYGSTYRCVSVLTVLHQDWLNGKEYKCKVSNKALPAPIEKTISKAKGQPREPQVYTLPPSREEMTKNQVSLTCLVKGFYPSDIAVEWESNGQPENNYKTTPPVLDSDGSFFLYSKLTVDKSRWQQGNVFSCSVMHEALHNHYTQKSLSLSPGK , please?
[reply] 2.6

[ask] Query (binder): huNRG1(S177-Q237)()200E_KDF)::GG::huFcSEFL2 (Pb) (Fc fusion) SHLVKCAEKEKTFCVNGGECFMVEDLSNPSRYLCKCPNEFTGDRCQKDFMASFYKAEELYQGGDKTHTCPPCPAPELLGGPSVFLFPPKPKDTLMISRTPEVTCVVVDVSHEDPEVKFNWYVDGVEVHNAKTKPCEEQYGSTYRCVSVLTVLHQDWLNGKEYKCKVSNKALPAPIEKTISKAKGQPREPQVYTLPPSREEMTKNQVSLTCLVKGFYPSDIAVEWESNGQPENNYKTTPPVLDSDGSFFLYSKLTVDKSRWQQGNVFSCSVMHEALHNHYTQKSLSLSPGK ; field requested: Cardiomyocyte (CM) (ErbB4) Avg EC50
[reply] 2

[ask] Sample huNRG1(S177-Q237)(1A7)::GG::huFcSEFL2 (Pb) (Fc fusion) SHLVKCAERDKSFCVNGGECYVIEHLSNPSRFLCKCPNEFTGDRCQKDFMASFYKAEELYQGGDKTHTCPPCPAPELLGGPSVFLFPPKPKDTLMISRTPEVTCVVVDVSHEDPEVKFNWYVDGVEVHNAKTKPCEEQYGSTYRCVSVLTVLHQDWLNGKEYKCKVSNKALPAPIEKTISKAKGQPREPQVYTLPPSREEMTKNQVSLTCLVKGFYPSDIAVEWESNGQPENNYKTTPPVLDSDGSFFLYSKLTVDKSRWQQGNVFSCSVMHEALHNHYTQKSLSLSPGK — what was its Cardiomyocyte (CM) (ErbB4) Avg EC50?
[reply] 0.619

[ask] Which Cardiomyocyte (CM) (ErbB4) Avg EC50 is listed for huNRG1(S177-Q237)(2G4)::GG::huFcSEFL2 (Pb) (Fc fusion) SHLVKCAENEKTFCVNGGECFVVEGLSIPSRYLCKCPNEFTGDRCQDVFMASFYKAEELYQGGDKTHTCPPCPAPELLGGPSVFLFPPKPKDTLMISRTPEVTCVVVDVSHEDPEVKFNWYVDGVEVHNAKTKPCEEQYGSTYRCVSVLTVLHQDWLNGKEYKCKVSNKALPAPIEKTISKAKGQPREPQVYTLPPSREEMTKNQVSLTCLVKGFYPSDIAVEWESNGQPENNYKTTPPVLDSDGSFFLYSKLTVDKSRWQQGNVFSCSVMHEALHNHYTQKSLSLSPGK ?
[reply] 2.42

[ask] Look at this binder and give its reported Cardiomyocyte (CM) (ErbB4) Avg EC50. huNRG1(S177-Q237)(NRGE1K)::GG::huFcSEFL2 (Pb) (Fc fusion) SHLVKCAEKHKSFCVNGGECFMIEGPSNPSRYLCKCPNEFTGDRCQDDFMASFYKAEELYQGGDKTHTCPPCPAPELLGGPSVFLFPPKPKDTLMISRTPEVTCVVVDVSHEDPEVKFNWYVDGVEVHNAKTKPCEEQYGSTYRCVSVLTVLHQDWLNGKEYKCKVSNKALPAPIEKTISKAKGQPREPQVYTLPPSREEMTKNQVSLTCLVKGFYPSDIAVEWESNGQPENNYKTTPPVLDSDGSFFLYSKLTVDKSRWQQGNVFSCSVMHEALHNHYTQKSLSLSPGK
[reply] 7.54

[ask] Reported Cardiomyocyte (CM) (ErbB4) Avg EC50, binder huNRG1(S177-Q237)(3F2)::GG::huFcSEFL2 (Pb) (Fc fusion) SHLVKCGESHKSFCVNGGECFMIEGPSNPSRYLCKCPNEFTGDRCQDDFMASFYKAEELYQGGDKTHTCPPCPAPELLGGPSVFLFPPKPKDTLMISRTPEVTCVVVDVSHEDPEVKFNWYVDGVEVHNAKTKPCEEQYGSTYRCVSVLTVLHQDWLNGKEYKCKVSNKALPAPIEKTISKAKGQPREPQVYTLPPSREEMTKNQVSLTCLVKGFYPSDIAVEWESNGQPENNYKTTPPVLDSDGSFFLYSKLTVDKSRWQQGNVFSCSVMHEALHNHYTQKSLSLSPGK : ____
[reply] 0.738

[ask] Need Cardiomyocyte (CM) (ErbB4) Avg EC50 of huNRG1(S177-Q237)(3G9)::GG::huFcSEFL2 (Pb) (Fc fusion) SHLVKCGESHKSFCVNGGECFMVEDLSNPSRFLCKCPNEFTGDRCQKDFMASFYKAEELYQGGDKTHTCPPCPAPELLGGPSVFLFPPKPKDTLMISRTPEVTCVVVDVSHEDPEVKFNWYVDGVEVHNAKTKPCEEQYGSTYRCVSVLTVLHQDWLNGKEYKCKVSNKALPAPIEKTISKAKGQPREPQVYTLPPSREEMTKNQVSLTCLVKGFYPSDIAVEWESNGQPENNYKTTPPVLDSDGSFFLYSKLTVDKSRWQQGNVFSCSVMHEALHNHYTQKSLSLSPGK , thanks.
[reply] 0.581
